System: Peptide deformylase (Staphylococcus aureus subsp. aureus Mu50, UniProt P68825) | Read-out: IC50 | Origin: multiple publications
METRIC: IC50 (nM)

Worked cases, IC50 given:
Look up IC50: O=C(NO)C(NCc1cccc(C(F)(F)F)c1)c1ccccc1F (stereo unspecified)
460

Requested field: IC50. Item: O=C(CC1Sc2ccccc2N(CCC2CCCCC2)C1=O)NO (stereo unspecified)
57

Entry N#CCN1C(=O)C(CC(=O)NO)Sc2ccccc21 (stereo unspecified) : reported IC50 = ?
515

P = O=C(CC1Sc2ccccc2N(CC2CCCCO2)C1=O)NO (stereo unspecified)
Q = O=C(CC1Sc2ccccc2N(CC(=O)N2CCCC2)C1=O)NO (stereo unspecified)
R = C[C@@H]1CCC/C=C/CCC(=O)C[C@@H](O)C/C=C\C=C\[C@@H](O[C@H]2O[C@@H](CO)[C@H](O)[C@@H](O)[C@@H]2O)C/C=C/C=C\C(=O)O1
S = CC(C)(C)C(=O)CN1C(=O)C(CC(=O)NO)Sc2ccccc21 (stereo unspecified)
Place the items in sequence of falling IC50. Could you list the labels in the order requested?
R, Q, S, P
(R: 53500 nM, Q: 397 nM, S: 50 nM, P: 18 nM)
